Taken from patent US9301923B2.

Assay: pKa of the lipid by TNS fluorescence
Format: physicochemical
Settings: pKa
Protocol: Unless explicitly indicated otherwise, all pKas referred to herein are measured in water at standard temperature and pressure. Also, unless otherwise indicated, all references to pKa are references to pKa measured using the following technique. […] Priority: Column priority • Carriage Speed: Normal • Auto read: Off The normalized fluorescence intensity vs. pH chart is then plotted in the Microsoft Excel software. […] The pKa determined using this method is precise to about 0.2 pKa units.

- compound: "CCCCC/C=C\\C/C=C\\CCCCCCCCOCC(CN1CCCCC1)OCCOCCOC(=O)CCC(=O)O[C@H]1CC[C@@]2(C)C(=CCC3C2CC[C@@]2(C)C3CC[C@@H]2[C@H](C)CCCC(C)C)C1 (stereo partly drawn)"
  pKa: 6.43
- compound: "CCCCC/C=C\\C/C=C\\CCCCCCCCOCC(CN1CCC2(CC1)OCCCO2)OCCOCCO[C@H]1CC[C@@]2(C)C(=CCC3C2CC[C@@]2(C)C3CC[C@@H]2[C@H](C)CCCC(C)C)C1 (stereo partly drawn)"
  pKa: 5.84
- compound: "CCCCC/C=C\\C/C=C\\CCCCCCCCOCC(CN1CCCCC1)OCCCOCCCO[C@H]1CC[C@@]2(C)C(=CC[C@H]3[C@@H]4CC[C@H]([C@H](C)CCCC(C)C)[C@@]4(C)CC[C@@H]32)C1 (stereo partly drawn)"
  pKa: 5.79
- compound: "CCCCCCCC/C=C\\CCCCCCCCOCC(CN1CCOCC1)OCCOCCOC(=O)CCC(=O)O[C@H]1CC[C@@]2(C)C(=CC[C@H]3[C@@H]4CC[C@H]([C@H](C)CCCC(C)C)[C@@]4(C)CC[C@@H]32)C1 (stereo partly drawn)"
  pKa: 5.38
- compound: "CCCCC/C=C\\C/C=C\\CCCCCCCCCCOCC(CN1CCCCC1)OCCOCCO[C@H]1CC[C@@]2(C)C(=CC[C@H]3[C@@H]4CC[C@H]([C@H](C)CCCC(C)C)[C@@]4(C)CC[C@@H]32)C1 (stereo partly drawn)"
  pKa: 6.47
- compound: "CCCCC/C=C\\C/C=C\\CCCCCCCCOCC(CN1CC2CCCN(C(=O)OC(C)(C)C)C2C1)OCCOCCO[C@H]1CC[C@@]2(C)C(=CCC3C2CC[C@@]2(C)C3CC[C@@H]2[C@H](C)CCCC(C)C)C1 (stereo partly drawn)"
  pKa: 4.8
- compound: "CCCCC/C=C\\C/C=C\\CCCCCCCCOC[C@H](CN1CCCCC1)OCCOCCO[C@H]1CC[C@@]2(C)C(=CCC3C2CC[C@@]2(C)C3CC[C@@H]2[C@H](C)CCCC(C)C)C1 (stereo partly drawn)"
  pKa: 6.33
- compound: "CCCCC/C=C\\C/C=C\\CCCCCCCCOCC(CN(C)C)OCCOCCO[C@H]1CC[C@@]2(C)C(=CC[C@H]3[C@@H]4CC[C@H]([C@H](C)CCCC(C)C)[C@@]4(C)CC[C@@H]32)C1 (stereo partly drawn) [E0172, reference compound]"
  pKa: 6.7
- compound: "CCCCC/C=C\\C/C=C\\CCCCCCCCOCC(Cn1ccnc1)OCCOCCO[C@H]1CC[C@@]2(C)C(=CCC3C2CC[C@@]2(C)C3CC[C@@H]2[C@H](C)CCCC(C)C)C1 (stereo partly drawn)"
  pKa: 5.73
